Target: Sodium-dependent serotonin transporter (Homo sapiens, UniProt P31645)
Sequence (P31645 whole entry): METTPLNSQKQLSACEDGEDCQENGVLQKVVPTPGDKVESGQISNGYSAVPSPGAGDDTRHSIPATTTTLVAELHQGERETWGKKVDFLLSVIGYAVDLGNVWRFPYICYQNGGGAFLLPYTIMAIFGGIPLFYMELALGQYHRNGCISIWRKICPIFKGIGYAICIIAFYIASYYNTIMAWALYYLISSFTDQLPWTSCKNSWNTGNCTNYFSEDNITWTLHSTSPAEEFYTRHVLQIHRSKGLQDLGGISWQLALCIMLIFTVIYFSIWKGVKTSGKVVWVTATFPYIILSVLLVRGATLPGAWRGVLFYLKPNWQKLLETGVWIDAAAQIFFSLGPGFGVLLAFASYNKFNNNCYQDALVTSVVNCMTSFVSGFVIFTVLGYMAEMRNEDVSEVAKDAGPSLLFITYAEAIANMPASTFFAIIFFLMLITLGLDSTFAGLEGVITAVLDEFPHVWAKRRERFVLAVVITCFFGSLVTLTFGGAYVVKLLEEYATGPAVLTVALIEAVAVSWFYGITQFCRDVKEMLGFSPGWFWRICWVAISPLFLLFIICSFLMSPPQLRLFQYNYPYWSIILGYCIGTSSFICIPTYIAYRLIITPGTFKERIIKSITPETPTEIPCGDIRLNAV
Assay: Displacement of [3H]citalopram from human SERT expressed in HEK293 cell membranes
result-type: IC50 (nM)
Field format: number, assumed nM, no unit text.

compound	subject-of-test	result-type	measured-result
CN(C)C[C@@H]1CCC[C@H]1c1ccc2c(c1)c(C#N)cn2C (racemic)	Sodium-dependent serotonin transporter (Homo sapiens, UniProt P31645)	IC50	570

Provide only the value of recorded IC50 for CN(C)C[C@@H]1C[C@H]1c1ccc2[nH]cc(C#N)c2c1 (racemic) 6

Provide only the value of recorded IC50 for CNC[C@@H]1CCC[C@H]1c1ccc2[nH]cc(C#N)c2c1 (racemic) 4.3

Provide only the value of recorded IC50 for CN(C)C[C@H]1CCC[C@H]1c1c[nH]c2ccc(C#N)cc12 1.1

Provide only the value of recorded IC50 for CN(C)C[C@@H]1CCC[C@H]1c1ccc2[nH]cc(C#N)c2c1 (racemic) 3.8

# credit: ChEMBL document CHEMBL2380269
